System: 22Rv1 cells
Experiment: Cell-based assay: anti-proliferative activity, Cell Counting Kit-8, 72 hours (22Rv1)
Conditions: Homo sapiens
Counter-ions that a name gives are not always drawn.
// assign yes if IC50 falls strictly below 0.1 µM, else no (ties count as no)

**Query** IC50 under 0.1 µM? Item: O=C(c1cnc2ccc(-c3cc(F)c(O)c(Cl)c3)cc2c1N[C@H]1CC[C@H](CN2CCCC2)CC1)C1CC1 [Example 588, hydrochloride]
**Result** no

**Query** IC50 under 0.1 µM? Item: CN(C)CCc1ccc(Nc2c(C(=O)C3CC3)cnc3ccc(-c4cc(Cl)c(O)c(Cl)c4)cc23)cc1 [Example 614, hydrochloride]
**Result** no

**Query** IC50 under 0.1 µM? Item: CC(C)(N)c1ccc(Nc2c(C(=O)C3CC3)cnc3ccc(-c4cc(Cl)c(O)c(Cl)c4)cc23)cc1 [Example 602]
**Result** yes

**Query** IC50 under 0.1 µM? Item: CN[C@H]1CC[C@H](Nc2c(C(=O)C3CC3)cnc3ccc(-c4cc(Cl)c(O)c(OC)c4)cc23)CC1 [Example 517]
**Result** no

**Query** IC50 under 0.1 µM? Item: CN[C@H]1CC[C@H](Nc2c(C(C)=O)cnc3ccc(-c4cc(Cl)c(O)c(OC)c4)cc23)CC1 [Example 543, dihydrochloride]
**Result** no

**Query** IC50 under 0.1 µM? Item: CC(C)(N)c1ccc(Nc2c(C(=O)C3CC3)cnc3ccc(-c4cc(F)c(O)c(Cl)c4)cc23)cc1 [Example 604]
**Result** yes

**Query** IC50 under 0.1 µM? Item: CN1CCN(C[C@H]2CC[C@H](Nc3c(C(=O)C4CC4)cnc4ccc(-c5cc(Cl)c(O)c(Cl)c5)cc34)CC2)CC1 [Example 619, hydrochloride]
**Result** no

Origin of the recorded values: patent US9120749B2
